study.target: Cellular tumor antigen p53 (Homo sapiens)
assay.method.text: TOX21_p53_BLA_p4_ratio: Tox21 HCT-116 p53 Agonism Beta-lactamase Assay, Ratio, Phase 4 (AID 2283601)
Results filed as inconclusive are left out. Active and inactive are the calls of the source. Rule for the calls: active = hit-call score of the fitted dose curve at least 0.9, where 1 is the maximum; inconclusive = response in the unintended direction; inactive = score below 0.9.
Choose one outcome from this list and give only that: active, inactive

C=CCOCC(O)CCl (stereo unspecified)	inactive
C=CCOc1c(Br)cc(Br)cc1Br	inactive
Cc1cc(=O)n(-c2ccccc2)n1C	inactive

Query: Check the results log: what was the call for Cc1cccc(OCCOc2cccc(C)c2)c1 ?
Result: inactive

Query: Returns: the outcome recorded for CC(=O)Oc1ccc(C(C)=O)cc1 in this assay.
Result: inactive

Query: For this compound, state the assay outcome: O=CN1CCCCC1
Result: inactive

Query: What did the test return for Cc1ccc(N/N=c2\c(=O)cc/c(=N/Nc3ccc(S(=O)(=O)O)cc3)c2=O)c(C)c1 ?
Result: inactive

Query: Would you mind telling me which call this test gave CC(C)c1ccc2c(C(C)C)cc(C(C)C)c(S(=O)(=O)O)c2c1 ?
Result: inactive

Query: Returns: the outcome recorded for CCCCC/C=C\C/C=C\CCCCCCCC(=O)OC in this assay.
Result: inactive

The reported measurements were obtained from PubChem BioAssay (EPA / NIEHS).
